measurementTarget: Peroxisome proliferator-activated receptor gamma (Homo sapiens) (UniProt P37231)
Sequence (P37231 whole entry, looked up): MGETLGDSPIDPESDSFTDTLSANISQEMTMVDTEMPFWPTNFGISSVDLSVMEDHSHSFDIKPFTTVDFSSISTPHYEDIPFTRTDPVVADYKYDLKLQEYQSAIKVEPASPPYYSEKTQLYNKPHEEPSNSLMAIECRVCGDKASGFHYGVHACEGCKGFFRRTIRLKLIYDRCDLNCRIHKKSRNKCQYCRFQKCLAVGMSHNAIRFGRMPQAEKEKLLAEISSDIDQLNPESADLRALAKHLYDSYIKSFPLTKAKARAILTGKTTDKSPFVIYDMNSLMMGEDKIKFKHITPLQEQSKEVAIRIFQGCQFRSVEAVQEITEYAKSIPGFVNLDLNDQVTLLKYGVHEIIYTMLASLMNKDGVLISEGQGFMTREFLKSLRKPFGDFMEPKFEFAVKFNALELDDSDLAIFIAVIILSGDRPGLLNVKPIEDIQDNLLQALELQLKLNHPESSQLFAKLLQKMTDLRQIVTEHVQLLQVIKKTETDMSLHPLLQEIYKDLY
protocolDetails: OT_PPARg_PPARgSRC1_1440: Odyssey Thera (OT) 24-hour Protein-Complementation Assay for Peroxisome Proliferator-activated Receptor Gamma/ SRC-1 Co-activator (AID 2283388);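 also: nuclear to cytoplasmic ratio of reconstituted Venus YFP fluorescence in fixed imaged cells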
Calls of active or inactive are those of the source. The calls were made as follows: active = hit-call score of the fitted dose curve at least 0.9, where 1 is the maximum; inconclusive = response in the unintended direction; inactive = score below 0.9.
resultType: outcome

Consider the worked cases shown below.
| compound | outcome |
| --- | --- |
| O=C(c1ccccc1)c1ccc(O)cc1O | inactive |
| O=C1C=CC(=O)N1c1ccccc1 | inactive |
| CCOC(=O)C1CC(=O)C(=C(O)C2CC2)C(=O)C1 (configuration not stated) | inactive |
| OCC1CCCO1 (configuration not stated) | inactive |

input: Endpoint output: outcome of C[C@]12CC[C@H]3C(=CCc4cc(O)ccc43)[C@@H]1CCC2=O . Value?
output: inactive

input: Endpoint output: outcome of F[Si-2](F)(F)(F)(F)F . Value?
output: inactive

---

Tested on: IYD (gene 389434)
protocolDetails: CCTE_GLTED_hIYD: CCTE's human Iodotyrosine Deiodinase (xIYD) Inhibition Assay, Great Lakes Toxicology and Ecology Division (GLTED) Lab (AID 2284317);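 also: cell-free human IYD enzyme made in baculovirus insect cells; iodide freed from monoiodotyrosine measured by cerium arsenite color change at 420 nm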
Active and inactive are the calls of the source. The calls were made as follows: active = hit-call score of the fitted dose curve at least 0.9, where 1 is the maximum; inconclusive = response in the unintended direction; inactive = score below 0.9.
resultType: AC50

input: Endpoint output: AC50 of O=C(O)CCC(F)(F)C(F)(F)C(F)(F)C(F)(F)C(F)(F)C(F)(F)C(F)(F)F . Value?
output: 160 µM (active)

input: Endpoint output: AC50 of CCCCCCCCCCCCC[N+](C)(C)Cc1ccccc1 . Value?
output: 70.8 µM (active)

input: Endpoint output: AC50 of CCCCCCCCCCCCCC[P+](CCCC)(CCCC)CCCC . Value?
output: 97.6 µM (active)

input: Endpoint output: AC50 of O=S(=O)(Cl)C(F)(F)C(F)(F)C(F)(F)C(F)(F)C(F)(F)C(F)(F)C(F)(F)C(F)(F)F . Value?
output: 100 µM (active)

---

protocolDetails: BSK_MyoF_SRB: Viability Assessment in the BioMAP Diversity Plus: MyoF Assay (AID 2284267);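 also: total protein by SRB absorbance in parallel cultures as cytotoxicity measure; cells assessed 24 h after compound addition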
settings: primary human lung fibroblasts
Calls of active or inactive are those of the source. Rule for the calls: active = hit-call score of the fitted dose curve at least 0.9, where 1 is the maximum; inactive = score below 0.9.
Lab note: assign the record to one of active, inactive

input: Name the outcome recorded for O=C=Nc1cccc2c(N=C=O)cccc12 in the assay.
output: inactive

input: Name the outcome recorded for OCC(F)(F)C(F)(F)C(F)(F)C(F)(F)C(F)(F)C(F)(F)CO in the assay.
output: inactive

input: Name the outcome recorded for CCOC(=O)CC(=O)C(F)(F)C(F)(F)F in the assay.
output: inactive

input: Name the outcome recorded for O=C(Cl)C(F)(F)C(F)(F)C(F)(F)C(F)(F)C(F)(F)C(F)(F)F in the assay.
output: inactive

input: Name the outcome recorded for O=C(O)C(F)(F)OC(F)(F)C(F)(F)OC(F)(F)C(F)(F)OC(F)(F)F in the assay.
output: inactive

input: Name the outcome recorded for O=C=NCc1cccc(CN=C=O)c1 in the assay.
output: inactive

input: Name the outcome recorded for OC(O)C(F)(F)C(F)(F)F in the assay.
output: inactive

input: Name the outcome recorded for O=C(O)C(F)(F)C(F)(F)C(F)(F)C(=O)O in the assay.
output: inactive

input: Name the outcome recorded for NC(=O)C(F)(F)C(F)(F)C(F)(F)C(F)F in the assay.
output: inactive

input: Name the outcome recorded for NC(=O)C(F)(F)C(F)(F)C(F)(F)C(F)(F)C(F)(F)C(F)(F)C(F)(F)F in the assay.
output: inactive

input: Name the outcome recorded for CC(C)CCCC(C)CCO (configuration not stated) in the assay.
output: active

input: Name the outcome recorded for O=C(c1ccccc1)c1ccc(O)cc1O in the assay.
output: inactive

---

protocolDetails: ATG_FoxO_CIS: Attagene CIS-FACTORIAL HepG2 Assay for human Forkhead box O (FoxO) (AID 2282943)
settings: HepG2 Attagene cis-reporter, FoxO element, mRNA; actives raise or lower the signal
Active and inactive are the calls of the source. Rule for the calls: active = hit-call score of the fitted dose curve at least 0.9, where 1 is the maximum; inactive = score below 0.9.
Lab note: assign the record to one of active, inactive

input: Name the outcome recorded for COCCOCCC[Si](C)(O[Si](C)(C)C)O[Si](C)(C)C in the assay.
output: inactive

input: Name the outcome recorded for Cc1cccc(C)n1 in the assay.
output: inactive

input: Name the outcome recorded for CC(C)CCCC(C)CCO (stereo not drawn) in the assay.
output: inactive

input: Name the outcome recorded for O=C(O)C(F)(F)C(F)(F)C(F)(F)OC(F)(F)F in the assay.
output: inactive

input: Name the outcome recorded for CCOC(C=C(C)CCC=C(C)C)OCC in the assay.
output: inactive

input: Name the outcome recorded for O=C1OC(=O)c2ccc3c4c(ccc1c24)C(=O)OC3=O in the assay.
output: inactive

input: Name the outcome recorded for O=C(O)CCC(F)(F)C(F)(F)C(F)(F)F in the assay.
output: inactive

input: Name the outcome recorded for CCN(CC)c1ccc2c(c1)Oc1cc(N(CC)CC)ccc1C21OC(=O)c2ccccc21 in the assay.
output: inactive

input: Name the outcome recorded for Cc1ccc(S(=O)(=O)C(I)I)cc1 in the assay.
output: active

input: Name the outcome recorded for O=S(=O)(O)c1ccc(Cl)cc1 in the assay.
output: inactive

input: Name the outcome recorded for Cc1ccc(O)c(-n2nc3ccccc3n2)c1 in the assay.
output: inactive

input: Name the outcome recorded for c1ccc(C[P+](c2ccccc2)(c2ccccc2)c2ccccc2)cc1 in the assay.
output: inactive

input: Name the outcome recorded for CC1=CCC2C(=O)OC(=O)C2C1 (stereo not drawn) in the assay.
output: inactive

---

measurementTarget: Nuclear receptor subfamily 1 group I member 2 (Homo sapiens) (UniProt O75469)
Sequence (O75469 whole entry, looked up): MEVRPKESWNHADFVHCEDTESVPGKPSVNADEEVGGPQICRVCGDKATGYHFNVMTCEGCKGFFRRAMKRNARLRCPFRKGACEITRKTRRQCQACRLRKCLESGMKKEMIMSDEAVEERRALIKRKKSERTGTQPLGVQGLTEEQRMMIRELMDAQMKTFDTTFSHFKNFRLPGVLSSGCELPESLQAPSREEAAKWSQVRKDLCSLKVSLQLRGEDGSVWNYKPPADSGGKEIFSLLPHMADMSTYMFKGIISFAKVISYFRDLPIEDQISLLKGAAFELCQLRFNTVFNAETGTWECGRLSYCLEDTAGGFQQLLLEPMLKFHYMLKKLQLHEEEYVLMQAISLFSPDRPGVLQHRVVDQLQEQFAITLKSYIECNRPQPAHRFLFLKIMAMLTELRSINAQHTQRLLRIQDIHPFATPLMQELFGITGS
protocolDetails: ATG_PXR_TRANS: Attagene TRANS-FACTORIAL HepG2 Assay for human Pregnane X Receptor (PXR) (AID 2283008)
Inconclusive results are not listed. Calls of active or inactive are those of the source. How the source made its calls: active means hit-call score of the fitted dose curve at least 0.9, where 1 is the maximum; inconclusive means response in the unintended direction; inactive means score below 0.9.
Lab note: assign the record to one of y = active, n = inactive

input: Name the outcome recorded for CCCCCCCCCc1ccc(OCCO)cc1 in the assay.
output: y

input: Name the outcome recorded for O=C1c2c(O)ccc(Nc3ccc(CCO)cc3)c2C(=O)c2c([N+](=O)[O-])ccc(O)c21 in the assay.
output: y

input: Name the outcome recorded for NC(=O)C(F)(F)C(F)(F)C(F)(F)C(F)(F)C(N)=O in the assay.
output: n

input: Name the outcome recorded for O=S(=O)(O)CCC(F)(F)C(F)(F)C(F)(F)C(F)(F)C(F)(F)C(F)(F)C(F)(F)C(F)(F)F in the assay.
output: n

input: Name the outcome recorded for O=S(=O)(OCC(F)(F)F)C(F)(F)C(F)(F)C(F)(F)C(F)(F)F in the assay.
output: n

input: Name the outcome recorded for COC(F)(C(F)F)C(F)(F)F (stereo unspecified) in the assay.
output: n

input: Name the outcome recorded for O=C1C=CC(=O)N1c1ccc(Cc2ccc(N3C(=O)C=CC3=O)cc2)cc1 in the assay.
output: n

input: Name the outcome recorded for N#CCCOCCC#N in the assay.
output: n

input: Name the outcome recorded for CO[Si](C)(CCC(F)(F)C(F)(F)C(F)(F)C(F)(F)C(F)(F)C(F)(F)F)OC in the assay.
output: n

input: Name the outcome recorded for Oc1ccc2c(c1)CCC2 in the assay.
output: n

input: Name the outcome recorded for CCCCC(CC)COC(=O)c1ccc(N(C)C)cc1 (stereo unspecified) in the assay.
output: y

---

protocolDetails: BSK_3C_uPAR: BioMAP Diversity Plus: 3C Assay for Urokinase-type plasminogen activator receptor (uPAR) Biomarker Activity (AID 2282998)
settings: BioMAP 3C HUVEC, uPAR biomarker ELISA; actives raise or lower the signal
Active and inactive are the calls of the source. Rule for the calls: active = hit-call score of the fitted dose curve at least 0.9, where 1 is the maximum; inactive = score below 0.9.
Lab note: assign the record to one of class 1 for active, class 0 for inactive

input: Name the outcome recorded for CNS(=O)(=O)C(F)(F)C(F)(F)C(F)(F)C(F)(F)C(F)(F)C(F)(F)C(F)(F)C(F)(F)F in the assay.
output: class 0

input: Name the outcome recorded for Cc1cc(C)c(O)c(C(C)(C)C)c1 in the assay.
output: class 1

input: Name the outcome recorded for CCN(CC)c1ccc(C=O)c(O)c1 in the assay.
output: class 0

input: Name the outcome recorded for C[C@]12CC[C@H]3C(=CCc4cc(O)ccc43)[C@@H]1CCC2=O in the assay.
output: class 0

input: Name the outcome recorded for C=CC(=O)OCCC(F)(F)C(F)(F)C(F)(F)C(F)(F)F in the assay.
output: class 0

input: Name the outcome recorded for NC(=O)C(F)(F)C(F)(F)C(F)(F)C(F)(F)C(N)=O in the assay.
output: class 0

input: Name the outcome recorded for O=C(c1ccccc1)c1ccc(O)cc1O in the assay.
output: class 0

input: Name the outcome recorded for NCC(F)(F)C(F)(F)C(F)(F)C(F)(F)C(F)(F)C(F)(F)F in the assay.
output: class 0

input: Name the outcome recorded for O=C(O)C(F)(F)C(F)(F)C(F)(F)C(=O)O in the assay.
output: class 0

input: Name the outcome recorded for Cc1ccc(O)c(-n2nc3ccccc3n2)c1 in the assay.
output: class 0

input: Name the outcome recorded for CC1=CC2C3C=CC(C3)C2C1C (stereo not drawn) in the assay.
output: class 0

input: Name the outcome recorded for O=C(O)C(F)(F)OC(F)(F)C(F)(F)OC(F)(F)C(F)(F)OC(F)(F)F in the assay.
output: class 0

input: Name the outcome recorded for O=S(=O)(O)CCC(F)(F)C(F)(F)C(F)(F)C(F)(F)C(F)(F)C(F)(F)C(F)(F)C(F)(F)F in the assay.
output: class 0

input: Name the outcome recorded for CCOC(=O)CC(=O)C(F)(F)C(F)(F)F in the assay.
output: class 0

input: Name the outcome recorded for C=CC(=O)OCC(F)(F)C(F)(F)C(F)(F)C(F)(F)C(F)(F)C(F)(F)C(F)(F)C(F)F in the assay.
output: class 0

input: Name the outcome recorded for O=C(Cl)C(F)(F)C(F)(F)C(F)(F)C(F)(F)C(F)(F)C(F)(F)C(F)(F)F in the assay.
output: class 0

input: Name the outcome recorded for O=C(O)C(F)(F)C(F)(F)C(F)(F)OC(F)(F)F in the assay.
output: class 0

input: Name the outcome recorded for FC(F)(F)C(F)(F)C(F)(F)C(F)(F)C(F)(F)C(F)(F)C(F)(F)CCI in the assay.
output: class 0

input: Name the outcome recorded for FC(F)(F)C(F)(F)C(F)(F)C(F)(F)C(F)(F)C(F)(F)CC[Si](Cl)(Cl)Cl in the assay.
output: class 0

input: Name the outcome recorded for O=C=Nc1cccc2c(N=C=O)cccc12 in the assay.
output: class 0

input: Name the outcome recorded for CO[Si](C)(CCC(F)(F)C(F)(F)C(F)(F)C(F)(F)C(F)(F)C(F)(F)F)OC in the assay.
output: class 0

input: Name the outcome recorded for O=C1C=CC(=O)N1c1ccc(Cc2ccc(N3C(=O)C=CC3=O)cc2)cc1 in the assay.
output: class 1

input: Name the outcome recorded for OCCCCC(F)(F)C(F)(F)C(F)(F)C(F)(F)F in the assay.
output: class 0
